Documented Mouse weight (%) across a set of compounds
# Tested on: colo320 colorectal cancer tumor model
# experimental conditions: Table 14 (Example 43); dose 45 mg/kg, once a week for four weeks; BALB/c mice
Where a SMILES comes first, the peptide text is derived from it. The star is where a group is joined. Belotecan = CC[C@@]1(O)C(=O)OCc2c1cc1n(c2=O)Cc2c-1nc1ccccc1c2CCN(C(C)C)*; X2 = CCCCN(CCc1c2c(nc3ccccc13)-c1cc3c(c(=O)n1C2)COC(=O)[C@]3(O)CC)*; X1 = CC[C@@]1(O)C(=O)OCc2c1cc1n(c2=O)Cc2c-1nc1ccccc1c2CCN(C1CCC1)*; X7 = CC[C@@]1(O)C(=O)OCc2c1cc1n(c2=O)Cc2c-1nc1ccccc1c2CCN(C)*; Propanoyl(3-maleimido) = O=C1C=CC(=O)N1CCC(=O)*; PEG6 = NCCOCCOCCOCCOCCOCCOCCC(=O)O

// worked examples, Mouse weight (%) included
compound	target under test	observed property	value observed
CC[C@@]1(O)C(=O)OCc2c1cc1n(c2=O)Cc2c-1nc1ccccc1c2CCN(C(=O)CNC(=O)[C@H](Cc1ccccc1)NC(=O)CNC(=O)CNC(=O)CCOCCOCCOCCOCCOCCOCCNC(=O)CCN1C(=O)C=CC1=O)C(C)C [MI-6PEG-GGFG-Belotecan] ({Propanoyl(3-maleimido)-PEG6}-GGFG-Belotecan)	colo320 colorectal cancer tumor model	Mouse weight (%)	+34%
CC[C@@]1(O)C(=O)OCc2c1cc1n(c2=O)Cc2c-1nc1ccccc1c2CCN(C)C(=O)[C@H](CC(C)C)NC(=O)[C@H](CC(N)=O)NC(=O)[C@H](C)NC(=O)[C@H](C)NC(=O)CCOCCOCCOCCOCCOCCOCCNC(=O)CCN1C(=O)C=CC1=O [MI-6PEG-AANL-D1] ({Propanoyl(3-maleimido)-PEG6}-AANL-X7)	colo320 colorectal cancer tumor model	Mouse weight (%)	+16%
CC[C@@]1(O)C(=O)OCc2c1cc1n(c2=O)Cc2c-1nc1ccccc1c2CCN(C(=O)CNC(=O)[C@H](CC(N)=O)NC(=O)[C@H](C)NC(=O)[C@H](C)NC(=O)CCOCCOCCOCCOCCOCCOCCNC(=O)CCN1C(=O)C=CC1=O)C1CCC1 [MI-6PEG-AANG-D7] ({Propanoyl(3-maleimido)-PEG6}-AANG-X1)	colo320 colorectal cancer tumor model	Mouse weight (%)	+31%

Query (compound): CC[C@@]1(O)C(=O)OCc2c1cc1n(c2=O)Cc2c-1nc1ccccc1c2CCN(C(=O)[C@H](CC(C)C)NC(=O)[C@H](CC(N)=O)NC(=O)[C@H](C)NC(=O)[C@H](C)NC(=O)CCOCCOCCOCCOCCOCCOCCNC(=O)CCN1C(=O)C=CC1=O)C(C)C [MI-6PEG-AANL-Belotecan] ({Propanoyl(3-maleimido)-PEG6}-AANL-Belotecan) ; field requested: Mouse weight (%) +2%

Requested field: Mouse weight (%). Item: CCCCN(CCc1c2c(nc3ccccc13)-c1cc3c(c(=O)n1C2)COC(=O)[C@]3(O)CC)C(=O)[C@H](CC(C)C)NC(=O)[C@H](CC(N)=O)NC(=O)[C@H](C)NC(=O)[C@H](C)NC(=O)CCOCCOCCOCCOCCOCCOCCNC(=O)CCN1C(=O)C=CC1=O [MI-6PEG-AANL-D4] ({Propanoyl(3-maleimido)-PEG6}-AANL-X2) +18%
